Assay: Pharmacokinetic assay in mice, plasma LC-MS/MS, two-compartment model
Assay type: in vivo, mouse
Details: male, ICR, mouse, plasma, iv, 6 mg/kg
OBSERVABLE: AUC (ng·h/mL)
Form entry: value (ng·h/mL) — number only.

Req: Entry COc1cccc2c1C(=O)c1c(O)c3c(c(O)c1C2=O)C[C@@](O)(C(=O)CO)C[C@@H]3O[C@H]1C[C@H](N)[C@H](O)[C@H](C)O1 has what AUC?
Resp: 260

This collection of values is drawn from paper PMC10785662.
